# System: THP-1 cells
# Assay Comment: TNFα generation assay
# Assay type: cell-based, human
# Reported Conditions: Homo sapiens, THP-1, THP-1 cells; Table 22; read-out: IC50 in TNFα generation assay
pIC50: −log10 of the molar value.
Assay Readout: pIC50

Molecule | pIC50
NC(=O)c1cc(F)c(NC2CCCCC2N)nc1Nc1ccc2ncccc2c1 (centres unmarked) | > 7.19
Cc1nn(CC(F)F)c2cc(Nc3nc(N[C@H](CC4CC4)[C@H](C)N)c(F)cc3C(N)=O)ccc12 | 6.70 to 6.89
CCC[C@@H](Nc1nc(Nc2ccc3c(cnn3CCF)c2)c(C(N)=O)cc1F)[C@H](C)N | 6.89 to 7.19
CCC[C@@H](Nc1nc(Nc2cnc(OC)c(-n3nccn3)c2)c(C(N)=O)cc1F)[C@H](C)N | 6.70 to 6.89
COc1cc(Nc2nc(NC[C@H](C)N)c(F)cc2C(N)=O)ccn1 | > 7.19

Hi! Can you tell me pIC50 for each of these molecules?
1. COCCOCCOc1ccc2cc(Nc3nc(NC4CCCCC4N)c(F)cc3C(N)=O)ccc2n1 (centres unmarked)
2. NC[C@H](Nc1nc(Nc2ccc3ncccc3c2)c(C(N)=O)cc1F)c1ccccc1
3. CN(C)c1cccc2cc(Nc3nc(N[C@@H]4CCCC[C@@H]4N)c(F)cc3C(N)=O)cnc12

Result ::
1. 6.70 to 6.89
2. 6.89 to 7.19
3. 6.70 to 6.89
